Source: patent US7863285B2

target: human HM74a (Homo sapiens); assay: cAMP assay; conditions: CHO cells stably transfected with human HM74a; 5 μM forskolin; inhibition relative to DMSO controls
Sequence (Q8TDS4 whole entry): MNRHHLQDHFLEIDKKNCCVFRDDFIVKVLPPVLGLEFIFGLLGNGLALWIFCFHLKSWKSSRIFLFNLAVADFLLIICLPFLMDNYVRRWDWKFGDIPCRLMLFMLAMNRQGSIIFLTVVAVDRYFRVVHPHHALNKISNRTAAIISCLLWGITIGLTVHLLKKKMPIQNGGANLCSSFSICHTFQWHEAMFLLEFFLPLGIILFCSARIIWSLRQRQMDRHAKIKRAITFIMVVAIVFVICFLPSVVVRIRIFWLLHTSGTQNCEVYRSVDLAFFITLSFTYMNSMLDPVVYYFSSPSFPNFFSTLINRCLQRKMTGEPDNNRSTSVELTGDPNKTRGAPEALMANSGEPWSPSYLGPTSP

molecule	IC50 / nM
CCCCCn1c(=O)n2cnnc2c2[nH]c(C(F)(F)F)nc21 [Example 1]	20

###

Target: human HM74a (Homo sapiens)
Assay: GTPγS recruitment assay
Conditions: membranes of HEK293 cells transfected with human HM74a and Gα0; 35S GTPγS
Protocol: Membranes were prepared from HEK293 cells transiently transfected with human HM74a and Gα0 protein. Assays were performed in 384-well format in a volume of 50 μL per assay point. […] After 30 min incubation with agitation, plates were centrifuged at 1500 g for 5 min and bound ^35S GTPγS was determined by counting on a TopCount scintillation counter.
Sequence (Q8TDS4 whole entry): as above
Sequence (P09471 2-354 partner limits assumed): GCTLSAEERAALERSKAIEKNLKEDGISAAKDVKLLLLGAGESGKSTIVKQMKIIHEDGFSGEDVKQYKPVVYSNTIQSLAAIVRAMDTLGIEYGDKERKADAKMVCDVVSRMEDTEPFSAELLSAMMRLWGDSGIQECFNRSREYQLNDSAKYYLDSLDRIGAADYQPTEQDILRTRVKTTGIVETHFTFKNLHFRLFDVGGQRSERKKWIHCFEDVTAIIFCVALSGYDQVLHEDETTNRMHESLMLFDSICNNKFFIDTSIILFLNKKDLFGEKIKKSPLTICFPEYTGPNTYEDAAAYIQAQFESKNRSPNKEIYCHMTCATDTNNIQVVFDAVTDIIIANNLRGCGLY
Sequence (P62873 2-340 partner limits assumed): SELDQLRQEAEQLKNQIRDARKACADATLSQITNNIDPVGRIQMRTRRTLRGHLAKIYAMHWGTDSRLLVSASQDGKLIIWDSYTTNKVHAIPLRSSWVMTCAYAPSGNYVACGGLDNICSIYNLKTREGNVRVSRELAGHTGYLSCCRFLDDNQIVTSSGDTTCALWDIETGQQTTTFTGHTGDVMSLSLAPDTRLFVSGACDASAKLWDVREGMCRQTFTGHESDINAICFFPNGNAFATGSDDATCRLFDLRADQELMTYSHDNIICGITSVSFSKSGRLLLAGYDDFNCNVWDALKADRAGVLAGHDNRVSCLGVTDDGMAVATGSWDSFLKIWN
Sequence (P59768 2-68 partner limits assumed): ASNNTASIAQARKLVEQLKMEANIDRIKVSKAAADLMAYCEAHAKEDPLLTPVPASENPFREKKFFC
measured endpoint: EC50

compound	measured endpoint	reported measurement
CCCCCn1c(=O)n2cnnc2c2[nH]c(C(F)(F)F)nc21 [Example 1]	EC50	61 nM
